Test system: Jurkat
experimental.details: mean cell size (FSC-A) relative to DMSO control (fraction of control); higher = larger cells
measurement.context: 48 h
Where a name gives a salt, the structure may show the parent alone.
I would appreciate it if you labelled entries Yes when mean cell size is 1 or higher, otherwise No.

Examples from the recorded data:
CCN(CC)CCNC(=O)c1ccc(N)cc1 [Procainamide·HCl] (concentration: 25 µM)
Yes
C=C[C@H]1CN2CC[C@H]1C[C@H]2[C@H](O)c1ccnc2ccc(OC)cc12 [Quinine·HCl·H2O] (concentration: 25 µM)
Yes

Exercise: hey, is mean cell size for this one >= 1? CCOC(=O)c1ccc(C#Cc2ccc3c(c2)C(C)(C)CCS3)nc1 [Tazarotene] (concentration: 25 µM)
Solution: No

Exercise: hey, is mean cell size for this one >= 1? NC(=O)Cc1cccc(C(=O)c2ccccc2)c1N [Nepafenac] (concentration: 25 µM)
Solution: No

Exercise: hey, is mean cell size for this one >= 1? Cc1nccn1CC1CCc2c(c3ccccc3n2C)C1=O (centres undefined) [Ondansetron] (concentration: 25 µM)
Solution: No

Exercise: hey, is mean cell size for this one >= 1? CCC(=O)NCC[C@@H]1CCc2ccc3c(c21)CCO3 [Ramelteon] (concentration: 25 µM)
Solution: Yes

Exercise: hey, is mean cell size for this one >= 1? CC#C[C@]1(O)CC[C@H]2[C@@H]3CCC4=CC(=O)CCC4=C3[C@@H](c3ccc(N(C)C)cc3)C[C@@]21C [Mifepristone] (concentration: 25 µM)
Solution: No

Exercise: hey, is mean cell size for this one >= 1? OC[C@H]1O[C@@H](n2cnc3c2N=CNC[C@H]3O)C[C@@H]1O [Pentostatin] (concentration: 25 µM)
Solution: No

Exercise: hey, is mean cell size for this one >= 1? Nc1c(CC(=O)O)cccc1C(=O)c1ccc(Br)cc1 [Bromfenac] (concentration: 25 µM)
Solution: No

Exercise: hey, is mean cell size for this one >= 1? O=C(O)c1cccnc1 [Niacin (Known As Vitamin B3, Nicotinic Acid And Vitamin Pp)] (concentration: 25 µM)
Solution: No

Exercise: hey, is mean cell size for this one >= 1? CC(=O)Oc1cc2c(s1)CCN(C(C(=O)C1CC1)c1ccccc1F)C2 (centres undefined) [Prasugrel] (concentration: 25 µM)
Solution: Yes

---

Tested on: Jurkat
experimental.details: cell count relative to DMSO control (fraction of control); higher = more cells (less growth inhibition)
measurement.context: 48 h
Structures can show the parent of a compound that is named as a salt.
quantity.measured: cell count
The reply should be a number, written without any unit.

Record excerpt, results attached:
O=C(O)c1cc(N=Nc2ccc(O)c(C(=O)O)c2)ccc1O [Olsalazine·Na] (concentration: 25 µM)
0.611
NC[C@H](O)c1ccc(O)c(O)c1 [Norepinephrine Bitartrate Monohydrate] (concentration: 25 µM)
0.658
NCCCC(N)(C(=O)O)C(F)F (stereo unspecified) [Eflornithine·HCl] (concentration: 25 µM)
0.985
C[C@H]1C[C@@H]2[C@H]([C@@H](O)C[C@@]3(C)[C@H]2CC[C@]3(O)C(=O)CO)[C@@]2(C)C=CC(=O)C=C12 [Methylprednisolone] (concentration: 25 µM)
0.873
Nc1nc(NC2CC2)c2ncn([C@H]3C=C[C@@H](CO)C3)c2n1 [Abacavir Sulfate] (concentration: 25 µM)
0.858

The record that follows has no cell count shown yet.
Exercise: Which cell count is reported with Jurkat for this entry: COC(=O)[C@@H]1CC2=CC(=O)CC[C@]2(C)[C@@]23O[C@@H]2C[C@@]2(C)[C@@H](CC[C@@]24CCC(=O)O4)[C@H]13 [Eplerenone] (concentration: 25 µM) ?
Solution: 0.521
